Data origin: the supplement of paper PMC6555819

- Tested on: LXRa:RXRa (NR concentration 270 nM, RXRa partner concentration 90 nM)
- Protocol description: PBM binding z-score (relative to random genomic background probes); higher = stronger binding; sequences stand for … in GC…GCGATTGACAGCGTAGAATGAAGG
Observed property: PBM binding z-score
Answers are plain numbers.

Below, 3 sequences whose answers are already recorded.
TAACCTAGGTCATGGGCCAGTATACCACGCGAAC 4.78
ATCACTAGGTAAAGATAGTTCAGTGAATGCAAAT 3.82
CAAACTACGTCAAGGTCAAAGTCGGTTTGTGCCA 4.23

Return reported PBM binding z-score values for all items listed beneath this line.
1. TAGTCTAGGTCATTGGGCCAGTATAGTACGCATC
2. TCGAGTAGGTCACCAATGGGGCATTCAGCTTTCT
3. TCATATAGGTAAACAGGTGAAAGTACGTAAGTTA
4. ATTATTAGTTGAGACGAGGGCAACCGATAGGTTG
5. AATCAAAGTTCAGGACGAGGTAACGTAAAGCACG
6. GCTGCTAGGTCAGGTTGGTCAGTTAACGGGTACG
7. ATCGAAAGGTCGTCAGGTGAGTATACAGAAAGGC

1. 4.2
2. 3.16
3. 1.03
4. 0.675
5. 4.39
6. 0.792
7. 3.98

Return reported PBM binding z-score values for all items listed beneath this line.
1. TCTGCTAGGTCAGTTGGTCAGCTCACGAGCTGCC
2. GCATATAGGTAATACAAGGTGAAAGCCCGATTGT
3. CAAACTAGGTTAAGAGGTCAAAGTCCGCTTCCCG
4. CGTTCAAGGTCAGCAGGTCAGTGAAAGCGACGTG

1. 0.925
2. 1.95
3. 5.82
4. 4.34
